# System: HCC-2998 colon
# Procedure Text: NCI tumour cell line growth inhibition, 48 h
Each entry below lists one item and its recorded TGI value.
A number alone suffices; assume µM.

Completed entries (count: 5):
Compound | Reported Metric | Uom | Result Number
Cc1ccc(C2N=C(N)NC3=C2CCOc2c3ccc3ccccc23)cc1 (stereo unspecified) | TGI | µM | 76.4
O=C1C=CC(=Nc2ccccc2)c2ccccc21 | TGI | µM | 23.1
C[n+]1c2ccccc2n2c3ccccc3c(NCCc3ccccn3)c(C#N)c21 | TGI | µM | 1.24
COc1cc(/C=C2\Oc3cc(OCCCN4CCCC4)ccc3C2=O)cc(OC)c1 | TGI | µM | 15
CCC(C)[C@H](NC(=O)NC(=O)NC(=O)CI)C(=O)OC (stereo partly specified) | TGI | µM | 26.9

// TGI lookup, key: c1cc(CSSCc2ccncc2)ccn1 58.7

Request: CCC/C(Cl)=N\OC(=O)Nc1cccc(C(F)(F)F)c1 33.4

Request: COc1cc2oc(-c3ccc(O)cc3O)c(CC=C(C)C)c(=O)c2c(O)c1/C=C/C(C)C 4.6

Request: CCN(CC)CCOc1ccc(/C=C2\C[C@H]3[C@H]4CC=C5C[C@@H](O)CC[C@]5(C)[C@H]4CC[C@]3(C)[C@H]2O)cc1OC 20.6

* * *

Each entry below lists one item and its recorded TGI value.
# Tested on: SK-MEL-28 melanoma
# Procedure Text: NCI tumour cell line growth inhibition, 48 h

Completed entries (count: 5):
Compound | TGI
Nc1c(C(=O)N/N=C/c2ccc(Cl)cc2)sc(=S)n1-c1ccccc1 | > 100 µM
N.N.O=P([O-])([O-])CN(CCN(CP(=O)([O-])[O-])CP(=O)([O-])[O-])CP(=O)([O-])[O-].[Pt+2] | > 100 µM
CC(=O)O[C@H]1C=CC(=O)C(C)CC1C (stereo partly specified) | > 100 µM
N#CC(Nc1cccc(C(F)(F)F)c1)c1ccccc1C(F)(F)F (stereo unspecified) | 31.8 µM
CC(=O)Oc1c2c(c(CC=C(C)C)c3c1C(=O)C1=C[C@@H]4CC5C(C)(C)OC(C/C=C(/C)C(=O)O)(C4=O)[C@@]15O3)OC(C)(CCC=C(C)C)C=C2 (stereo partly specified) | 0.378 µM

For SK-MEL-28 melanoma, provide TGI of C[n+]1c2ccccc2n2c3ccccc3c(NCCc3ccccn3)c(C#N)c21 please. 5.51 µM

Request: CC1(C)OCC(C2OC(OC(=O)c3ccc([N+](=O)[O-])cc3)C3OC(C)(C)OC23)O1 (stereo unspecified) > 100 µM

Request: Cc1cc(Cl)ccc1NC(=O)CCCC(=O)C1CCC/C1=N\NC(=O)CC#N (stereo unspecified) > 100 µM

Request: O=C(O)CC1NC(/C(=C/c2ccccc2O)NC(=O)c2ccccc2)OC1=O (stereo unspecified) > 100 µM

Request: CSc1c(C(=O)Nc2ccc(C)cc2)c(N)n(N)c(=O)c1C#N > 100 µM

Request: O=C(Nc1c(C(=O)NC2CCCCC2)[nH]c(=O)[nH]c1=O)c1ccc(Cl)cc1 > 100 µM

* * *

# System: K-562 leukemia
# Procedure Text: NCI tumour cell line growth inhibition, 48 h
Each entry below lists one item and its recorded TGI value.

Completed entries (count: 5):
Molecule | TGI
CC(C)OP(=O)(OC(C)C)c1ccc2c(c1)OCCOCCOCCOCCO2 | > 100 µM
N#Cc1cc([N+](=O)[O-])ccc1NC(=O)C(F)(F)F | > 100 µM
CC(C)=CCC1=C(OCC(=O)O)C(=O)c2ccccc2C1=O | > 100 µM
O=C(c1ccco1)c1c(C(F)(F)F)nc2ccc(C(F)(F)F)cc2[n+]1[O-] | > 100 µM
CCOC(=O)/C(C#N)=C1/Sc2c(ncn(/N=C/c3ccc(OC)cc3)c2=O)N1c1ccccc1 | > 100 µM

Now, please, on to the next molecule.
// TGI lookup, key: c1ccc(-c2nnc(SCc3c[nH]c4ccccc34)n2-c2ccccc2)cc1 > 100 µM

* * *

# Tested on: SK-MEL-5 melanoma
# Procedure Text: NCI tumour cell line growth inhibition, 48 h
Reported Metric: TGI

Completed entries (count: 2):
Molecule | TGI
Cc1c(/C=N/NC(=S)Nc2ccccc2)c(=O)n(-c2ccccc2)n1C | > 100 µM
CCCC(N)C(=O)c1ccccc1 (stereo unspecified) | > 100 µM

Now, please, on to the next molecule.
For SK-MEL-5 melanoma, provide TGI of C/C=C(/CCC1NCCC2c3ccccc3NC12)[Si](C)(C)C (stereo unspecified) please. 26 µM

* * *

# Test system: NCI-H226 lung
# Procedure Text: NCI tumour cell line growth inhibition, 48 h
Each entry below lists one item and its recorded GI50 value.

Completed entries (count: 10):
Compound | GI50
CC1SC2(CCC(c3ccccc3)CC2)N(NC(=O)c2[nH]c3ccc(F)cc3c2-c2ccccc2)C1=O (configuration not stated) | 11 µM
N.N.O=P([O-])([O-])CN(CCN(CP(=O)([O-])[O-])CP(=O)([O-])[O-])CP(=O)([O-])[O-].[Pt+2] | > 100 µM
Cc1[nH]c(C(=O)Nc2ccccc2OC2CCNCC2)c(Cl)c1Cl | 0.966 µM
CCCC[n+]1c(/C=C\c2c(OC)cc(OC)cc2OC)ccc2ccccc21 | 1.92 µM
Cc1cccc2nc3cccc(C(=O)NCCNCCNCCNC(=O)c4cccc5nc6cccc(C)c6nc45)c3nc12 | < 0.0128 µM
C=C1CCC2C3(C)COC(c4c(OC)cccc4OC)OC3CCC2(C)C1C/C=C1/C(=O)OCC1O (configuration not stated) | 2.42 µM
NC1CCC(Nc2nc(NCc3cc(Cl)ccc3O)c3ncn(C4CCCC4)c3n2)CC1 (configuration not stated) | 0.247 µM
O=C(NNc1ccc(F)cc1)C1CCC(CNS(=O)(=O)c2ccc(Cl)c(Cl)c2)CC1 (configuration not stated) | 15.6 µM
Fc1ccc(-c2nn3c(-c4cc(C(F)(F)F)cc(C(F)(F)F)c4)nnc3s2)cc1 | 1.49 µM
C/C(=N\NC(=S)N1CCN(C2CCCCCC2)CC1)c1ccccn1 | 2.88 µM

// GI50 lookup, key: COc1cccc(-n2cc(-c3nc(Nc4cc(C)[nH]n4)c4ccccc4n3)nn2)c1 4.02 µM

Request: C1COCCOCCOCCOCCOCCO1.[Cl][Sn]([Cl])([c]1ccccc1)[c]1ccccc1 11.5 µM

Request: Cc1ccc(/C=C/C(=N/N=C(N)N)c2ccccc2)cc1 3.09 µM

Request: Cn1cc(-c2csc(-c3cn(CCCCN4CCCCC4)c4ccc(F)cc34)n2)c2cccnc21 1.68 µM

Request: O=C(O)C1C2C=CC(C2)C1C(=O)O (configuration not stated) > 100 µM

Request: O=c1c2c(c3ccccc3n1-c1ccccc1)NC(=S)NC2c1ccc(Cl)cc1 (configuration not stated) 5.36 µM

Request: NCCCCCCCCCCCn1c2c(c3ccccc3c1=O)C(=O)c1ccccc1-2 25.2 µM

* * *

Each entry below lists one item and its recorded TGI value.
# System: A549 NSCLC
# Procedure Text: NCI tumour cell line growth inhibition, 48 h

Completed entries (count: 5):
Compound | System Tested | Result
CCOC(=O)/C(C#N)=C1/Sc2c(ncn(/N=C/c3ccc(OC)cc3)c2=O)N1c1ccccc1 | A549 NSCLC | > 100 µM
NC1CCC(Nc2nc(NCc3cc(Cl)ccc3O)c3ncn(C4CCCC4)c3n2)CC1 (stereo not given) | A549 NSCLC | 0.713 µM
O=C(CC1(O)C(=O)Nc2ccccc21)c1ccc(F)cc1 (stereo not given) | A549 NSCLC | > 100 µM
CCOP(=O)(Nc1ccccc1P(=O)(OCC)OCC)OCC | A549 NSCLC | > 100 µM
CC1CCCCN1CC(=O)c1ccc2c(c1)Sc1ccccc1O2 (stereo not given) | A549 NSCLC | 30.7 µM

// TGI lookup, key: CCOC(=O)C(=[N+]=[N-])C(=O)CN1C(=O)C2CC(C)=C(C)CC2C1O (stereo not given) > 100 µM

Request: COC(=O)c1c2c(cc3c1CC1(C3)Cc3cc4c(c(C(C)=O)c3C1)CCC4)C=CC2 (stereo not given) > 31.6 µM

Request: Cc1ccc(C2SCC(=O)N2c2ccc(-c3ccc(-n4c(-c5ccccc5)nc5ccccc5c4=O)cc3)cc2)cc1 (stereo not given) > 100 µM

Request: Cc1[nH]n(C(=N)N)c(=O)c1CCO > 100 µM

Request: C[C@H](NC(=O)n1c2ccccc2c2ccccc21)C(=O)O > 100 µM

Request: C/C(=N\NC(=S)N1CCN(C2CCCCCC2)CC1)c1ccccn1 1.86 µM

Request: N=C(N)SCc1cc(Cl)cc(Cl)c1O 53.9 µM

Request: CCOC(=O)NC(C(=O)OCC)(N1CCN(c2cc3c(cc2F)c(=O)c(C(=O)O)cn3CC)CC1)C(F)(F)F (stereo not given) > 100 µM

Request: COC(=O)NC(=Nc1ccc(Oc2ccccc2)cc1NC=O)NC(=O)OC > 100 µM
